Target: T1, 4H2649-AA
T1 chain: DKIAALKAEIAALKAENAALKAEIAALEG
Assay: two-hybrid library CCmax;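 note: natural log of median RNA to DNA barcode read ratio; higher means stronger binding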
Settings: mean of both orientations
Response field label: string, one of met (interaction score strictly below -1) or not met.

binder: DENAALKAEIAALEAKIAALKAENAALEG [4H1579-AA]
qualitative_label: met
//
binder: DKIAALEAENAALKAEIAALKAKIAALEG [4H2253-AA]
qualitative_label: met
//
binder: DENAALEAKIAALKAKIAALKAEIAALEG [4H1385-AA]
qualitative_label: met
//
binder: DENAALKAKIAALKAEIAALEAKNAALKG [4H1864-AA]
qualitative_label: met
//
binder: DKIAALEAKNAALEAEIAALEAKIAALKG [4H2438-AA]
qualitative_label: not met
//
binder: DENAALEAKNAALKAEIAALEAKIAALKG [4H1478-AA]
qualitative_label: met
